The origin of these recorded values is the RNAGym collection of RNA variant scans (doi:10.1093/nar/gkz1192).

B1: CPEB3 Ribozyme (parent)
chain: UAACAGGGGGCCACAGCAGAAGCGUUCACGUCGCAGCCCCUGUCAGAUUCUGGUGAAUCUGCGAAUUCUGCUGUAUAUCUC

# Variants of: B1
# assay-remarks: self-cleavage, relative activity (ratio to wild type); higher = more cleavage; in vitro, sequencing
property: self-cleavage

Reference set (3 entries):
{"mutation": "A3C U25C", "self-cleavage": 0.44}
{"mutation": "U1A G10A", "self-cleavage": 0.25}
{"mutation": "C29U C44A", "self-cleavage": 0.14}

Param item = A5C U78C ; retrieve measured self-cleavage.
0.89

What do we get for U54A C68U ?
1.03

What do we get for C12U U58A ?
0.9

What do we get for A13G G63C ?
0.81

What do we get for C34G U58A ?
0.11

What do we get for C40U ?
0.76

What do we get for C40A U69C ?
0.25

What do we get for G52U U66A ?
0.64

What do we get for C12U U49C ?
1.01

What do we get for U25G C32A ?
0.26

What do we get for A5G U74A ?
1.03

What do we get for U51G U80C ?
1.11

What do we get for A47C U78A ?
0.51

What do we get for A15C ?
0.92

What do we get for G6U ?
0.35

What do we get for A20C U72A ?
0.33

What do we get for A18G G55A ?
0.47
